- Test system: A549 cells
- PROTOCOL_SUMMARY: Soft agar growth assay (Alamar Blue), A549
- Assay type: cell-based
- ASSAY_CONTEXT: Homo sapiens, 192 h; A549 (lung), soft agar growth, incubation time 8 days; read-out: IC50
pIC50: −log10 of the molar value.

>  <COMPOUND>
C[C@@H](O[C@H]1OCCN(Cc2nc(=O)[nH][nH]2)[C@H]1c1ccc(F)cc1)c1cc(C(F)(F)F)cc(C(F)(F)F)c1 [Aprepitant]

>  <pIC50>
5.44

$$$$

----------
- Tested on: MDA-MB231 cells
- PROTOCOL_SUMMARY: Soft agar growth assay (Alamar Blue), MDA-MB231
- Type: cell-based
- ASSAY_CONTEXT: Homo sapiens, MDA-MB-231, 264 h

>  <MOLECULE>
C[C@@H](O[C@H]1OCCN(Cc2nc(O)n(P(=O)(O)O)n2)[C@H]1c1ccc(F)cc1)c1cc(C(F)(F)F)cc(C(F)(F)F)c1 [Fosaprepitant]

>  <STUDY_SYSTEM>
MDA-MB231 cells

>  <VALUE_UNITS>
µM

>  <IC50>
36

$$$$
